protocol description: Half life in Wistar rat at 50 mg/kg, ip by HPLC analysis
Assay type: ADME, organism-based
experimental conditions: in vivo
readout label: half-life

Bench note: what half-life did `COc1ccc(-c2nc(NC(=O)c3ccc(CN4CCC(O)CC4)cc3)cc3c2[nH]c2ccccc23)cc1` show?
9.08 h

----------
protocol description: Cmax in Wistar rat at 5 mg/kg, iv by HPLC analysis
Assay type: ADME, organism-based
Design: dose 5 mg/kg, route iv
experimental conditions: in vivo
readout label: Cmax (ng/mL)
Numeric only. Scale: ng/mL

| smiles code | Cmax, ng/mL |
| --- | --- |
| Cc1nc(NC(=O)c2ccc(CN3CCC(N4CCCCC4)CC3)cc2)cc2c1[nH]c1ccccc12 | 1120 |
| COc1ccc(-c2nc(NC(=O)c3ccc(CN4CCC(O)CC4)cc3)cc3c2[nH]c2ccccc23)cc1 | 3040 |

What Cmax value was documented for this compound, `COc1ccc(-c2nc(NC(=O)c3ccc(CN4CCC(N5CCCCC5)CC4)cc3)cc3c2[nH]c2ccccc23)cc1OC` ?
1400

----------
protocol description: AUC (0 to infinity) in Wistar rat at 5 mg/kg, iv by HPLC analysis
Format: ADME, organism-based
Design: dose 5 mg/kg, route iv
experimental conditions: in vivo
readout label: AUC(0-inf)
Write the quantity with the unit trailing the number.

| smiles code | AUC(0-inf) |
| --- | --- |
| Cc1nc(NC(=O)c2ccc(CN3CCC(N4CCCCC4)CC3)cc2)cc2c1[nH]c1ccccc12 | 1410 ng·h/mL |
| COc1ccc(-c2nc(NC(=O)c3ccc(CN4CCC(N5CCCCC5)CC4)cc3)cc3c2[nH]c2ccccc23)cc1OC | 1770 ng·h/mL |

Now look at this entry.
What value of AUC(0-inf) has been recorded for this entry: `COc1ccc(-c2nc(NC(=O)c3ccc(CN4CCC(O)CC4)cc3)cc3c2[nH]c2ccccc23)cc1`
3000 ng·h/mL

----------
protocol description: Oral bioavailability in Wistar rat at 50 mg/kg, […] by HPLC analysis
Format: ADME, organism-based
experimental conditions: in vivo
readout label: bioavailability

Examples with their reported bioavailability follow.
| smiles code | bioavailability |
| --- | --- |
| COc1ccc(-c2nc(NC(=O)c3ccc(CN4CCC(N5CCCCC5)CC4)cc3)cc3c2[nH]c2ccccc23)cc1OC | 26.8% |
| Cc1nc(NC(=O)c2ccc(CN3CCC(N4CCCCC4)CC3)cc2)cc2c1[nH]c1ccccc12 | 15.5% |

Consider the record given below.
Please give the measured bioavailability for this compound: `COc1ccc(-c2nc(NC(=O)c3ccc(CN4CCC(O)CC4)cc3)cc3c2[nH]c2ccccc23)cc1`
42.4%

Where do these numbers come from? They come from ChEMBL document CHEMBL5344429.
